Just for reference, PubChem BioAssay AID1347426 is where these values come from.

experiment_description: Novel Modifiers of Survival Motor Neuron (SMN) Protein: Gene Identification via Genome-wide siRNA Screen;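 note: luminescence tracks full-length SMN protein made from the SMN2 reporter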
setup_conditions: HEK293T SMN2-luciferase reporter, siRNA knockdown, 72 h; actives lie on both sides
Among all 31,000 sequences or so, about 1,400 (4.5%) were called active. This excerpt belongs to a sample that is enriched for actives.
outcome_measure: median seed-adjusted z-score

In the examples that follow, each entry is paired with its recorded median seed-adjusted z-score.
# sequence_input, result
measured = [
    ("GGAGCACAGAGGCUCAGAATT against TNFRSF13B", "0.152 (inactive)"),
    ("CGAAGACACGUAGCCCUAATT against PUS3", "0.584 (inactive)"),
    ("GACUCGUUGUUGGUCUAAATT against MAP3K7", "-0.23 (inactive)"),
    ("GUUGAGGUCUGGUAACAGATT against TMED1", "0 (inactive)"),
    ("CAUCAAAACUUGGAGAGCATT against FN3K", "-0.508 (inactive)"),
]

We next turn to a different sequence, shown below.
# median seed-adjusted z-score (sequence: CAAGGGUAUUAUUCGAGUUTT against PPP1R3A ) is -0.241 (inactive)

* * *

experiment_description: Novel Modifiers of Survival Motor Neuron (SMN) Protein: Gene Identification via Genome-wide siRNA Screen;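 note: luminescence tracks full-length SMN protein made from the SMN2 reporter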
setup_conditions: HEK293T SMN2-luciferase reporter, siRNA knockdown, 72 h; actives lie on both sides
The whole screen tested about 31,000 sequences, of which about 1,400 (4.5%) were called active. Only a selection was taken, and actives are over-represented in it overall.
outcome_measure: median seed-adjusted z-score
Keep it simple and answer with nothing but the number.

In the examples that follow, each entry is paired with its recorded median seed-adjusted z-score.
# sequence_input, median seed-adjusted z-score
rows = [
    ("GGAUUAUUCAUUAUUACAUTT against NDUFB6", -0.357),
    ("GGCUAGCCCUAGUAUGGAATT against CCAR1", -1.18),
    ("CGGUGACUCUUUAUGCACATT against PMPCB", 0.507),
]

# median seed-adjusted z-score (sequence: CGGUGCUCCCUGUCAUAAATT against CCR2 ) is -0.00107

# median seed-adjusted z-score (sequence: GGUUAAAGGUUAUGGUCCATT against PROSC ) is 0.173

* * *

experiment_description: Novel Modifiers of Survival Motor Neuron (SMN) Protein: Gene Identification via Genome-wide siRNA Screen;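 note: luminescence tracks full-length SMN protein made from the SMN2 reporter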
setup_conditions: HEK293T SMN2-luciferase reporter, siRNA knockdown, 72 h; actives lie on both sides
Among all 31,000 sequences or so, about 1,400 (4.5%) were called active. This excerpt belongs to a sample that is enriched for actives.
Overview of recorded median seed-adjusted z-score for various sequences
Keep it simple and answer with nothing but the number.

In the examples that follow, each entry is paired with its recorded median seed-adjusted z-score.
# sequence_input, median seed-adjusted z-score
data = [
    ("GCAGAAUUGGAGACGGAAATT against DNALI1", 0.699),
    ("GAAUUAACUUCAUGGUGAATT against PPM1K", 0.154),
]

# median seed-adjusted z-score (sequence: CUAUCUCACCAAGAUCUAUTT against PODN ) is 0.589

# median seed-adjusted z-score (sequence: GUAUCAAUCUAGAGCACAATT against MYOZ2 ) is 0.315

# median seed-adjusted z-score (sequence: GCCUCUUGCUAGGCAUAGCTT against CLDN15 ) is 0.973

* * *

experiment_description: Novel Modifiers of Survival Motor Neuron (SMN) Protein: Gene Identification via Genome-wide siRNA Screen;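 note: luminescence tracks full-length SMN protein made from the SMN2 reporter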
setup_conditions: HEK293T SMN2-luciferase reporter, siRNA knockdown, 72 h; actives lie on both sides
Screen size: about 31,000 sequences; about 1,400 (4.5%) were called active.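 How the source made its calls: active means median seed-adjusted z-score above 1 or below -1; inactive means the rest.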 Only a selection was taken, and actives are over-represented in it overall.
Tick one outcome: active, inactive

# sequence_input, label_class
records = [
    ("GACUAAUGAACUACUAAAATT against HMMR", "inactive"),
    ("GCAUGAUGGUAUUGAGCUUTT against MS4A6A", "inactive"),
    ("CGUCAACGAUCGGAAGAAATT against TTLL9", "inactive"),
    ("GGAUGUAAGUUGUCCAAUATT against SUZ12", "active"),
    ("CAGGCAAACCGCUACAUCATT against EN1", "inactive"),
]

I would be grateful if you could indicate the recorded call for GAAACUGGACAGUAAGAAATT against HDAC4 .
inactive

I would be grateful if you could indicate the recorded call for GAGUGUACCUGGAAUGUCUTT against ARNTL2 .
inactive

I would be grateful if you could indicate the recorded call for GGACCACGAUGAUCAUUGATT against CRMP1 .
inactive

* * *

experiment_description: Novel Modifiers of Survival Motor Neuron (SMN) Protein: Gene Identification via Genome-wide siRNA Screen;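 note: luminescence tracks full-length SMN protein made from the SMN2 reporter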
setup_conditions: HEK293T SMN2-luciferase reporter, siRNA knockdown, 72 h; actives lie on both sides
Screen size: about 31,000 sequences; about 1,400 (4.5%) were called active. The sample as a whole holds a higher share of actives than the screen did.
outcome_measure: median seed-adjusted z-score
Keep it simple and answer with nothing but the number.

In the examples that follow, each entry is paired with its recorded median seed-adjusted z-score.
# sequence_input, median seed-adjusted z-score
measured = [
    ("CCAUGUCUUUCUAUCGCAATT against PLD2", -0.743),
    ("CUACAAGACAGGCAAUCUATT against IFI30", 0.401),
    ("GAUACAGUCUACGCAGUUATT against ATPAF1", 0.393),
    ("GAAUCUUGCCCGUCUAUAATT against RSC1A1", 0.438),
    ("CUUAAUCACUUGCAUAAAATT against GALR1", -0.721),
    ("GCCUUACUCUGAUCUGGUATT against IL1RAP", -0.23),
    ("GGAAAGAGUUCAGUCGGAATT against ZNF671", -0.0551),
    ("GUGUCUCAGGGAUAGGUAATT against MICAL2", -0.0224),
]

We next turn to a different sequence, shown below.
# median seed-adjusted z-score (sequence: GGAUGGCCAUUGAAGGGAUTT against ECHDC2 ) is -0.0827

* * *

experiment_description: Novel Modifiers of Survival Motor Neuron (SMN) Protein: Gene Identification via Genome-wide siRNA Screen;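 note: luminescence tracks full-length SMN protein made from the SMN2 reporter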
setup_conditions: HEK293T SMN2-luciferase reporter, siRNA knockdown, 72 h; actives lie on both sides
Out of some 31,000 sequences screened, about 1,400 (4.5%) were called active. This is one part of a sample in which actives are shown more often than they occur.
outcome_measure: median seed-adjusted z-score
Keep it simple and answer with nothing but the number.

# sequence_input, median seed-adjusted z-score
rows = [
    ("CCAUAGUCUUCAUCUACGATT against GPR153", -1.08),
    ("GCAGGUACAUGUCUUGUCUTT against SPRY2", 0.148),
    ("GCUAUUGAAAGUACACCUATT against NARG1", -1.02),
]

# median seed-adjusted z-score (sequence: UCGCAAAGGUGAACACUCATT against PIN1 ) is 0.156

# median seed-adjusted z-score (sequence: CUAGGAGUCAAAGAAAAUATT against RNPS1 ) is 0

# median seed-adjusted z-score (sequence: AGAAGAUCCGAAAGAAAUATT against GABARAP ) is 0.418

* * *

experiment_description: Novel Modifiers of Survival Motor Neuron (SMN) Protein: Gene Identification via Genome-wide siRNA Screen;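 note: luminescence tracks full-length SMN protein made from the SMN2 reporter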
setup_conditions: HEK293T SMN2-luciferase reporter, siRNA knockdown, 72 h; actives lie on both sides
Among all 31,000 sequences or so, about 1,400 (4.5%) were called active.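 Rule for the calls: active = median seed-adjusted z-score above 1 or below -1; inactive = the rest.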 Shown is part of a subset that was picked to be rich in actives.
Tick one outcome: class 1 = active, class 0 = inactive

I would be grateful if you could indicate the recorded call for UGGAAUAAGUGGGCUCUGATT against ADM .
class 0

I would be grateful if you could indicate the recorded call for GCAUCAGCAUGUCGGUGGATT against ARID3A .
class 1

I would be grateful if you could indicate the recorded call for GGACUUUAUUCGGAAGCUUTT against DAPK2 .
class 0

* * *

experiment_description: Novel Modifiers of Survival Motor Neuron (SMN) Protein: Gene Identification via Genome-wide siRNA Screen;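 note: luminescence tracks full-length SMN protein made from the SMN2 reporter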
setup_conditions: HEK293T SMN2-luciferase reporter, siRNA knockdown, 72 h; actives lie on both sides
Screen size: about 31,000 sequences; about 1,400 (4.5%) were called active.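 Rule for the calls: active = median seed-adjusted z-score above 1 or below -1; inactive = the rest.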 Only a selection was taken, and actives are over-represented in it overall.
Tick one outcome: y for active, n for inactive

# sequence_input, label_class
records = [
    ("CGCUCUACCUGAUCUGCUATT against SLC43A2", "n"),
    ("GUUCUGCCCUCAUACCCUUTT against IL9R", "y"),
    ("CUAGGAAGAUAAUACCAGATT against BTRC", "n"),
    ("GCUUUUGAACUAUUUGAUATT against CETN3", "n"),
    ("AGCUUGAAAUCUCAUGGAATT against SPINK5L2", "n"),
]

I would be grateful if you could indicate the recorded call for CGGUAAAUGUCACUCGUGATT against PRKG1 .
n

I would be grateful if you could indicate the recorded call for GGUGCUCUCGGUUGCACAATT against U2AF1 .
y

I would be grateful if you could indicate the recorded call for GGCUGUAUCACAUCGGUUATT against CCR2 .
n

I would be grateful if you could indicate the recorded call for AGACCUAGCAUGGACCAGATT against GUCY2E .
n
